# PROTOCOL: Stability in mouse plasma assessed as parent compound remaining at 1 uM measured after 4 hrs by LC-MS/MS analysis
# Format: ADME, cell-free
# CONDITIONS_USED: read-out: Stability
Label satisfied when remaining at 4 h, 1 µM is strictly below 50%; at or above that, label not satisfied.

Below are worked cases with known answers.
COMPOUND	ASSIGNED_CATEGORY
COC(=O)OCOc1c2n(ccc1=O)N(C(c1ccccc1)c1ccccc1)[C@@H]1COCCN1C2=O	satisfied
O=C1c2c(O)c(=O)ccn2N([C@@H](c2ccccc2)c2ccc(F)c(F)c2)[C@@H]2COCCN12	not satisfied
O=C1c2c(O)c(=O)ccn2N([C@@H]2c3ccccc3SCc3c2ccc(F)c3F)[C@@H]2COCCN12 [BALOXAVIR]	satisfied
O=C1c2c(O)c(=O)ccn2N(C(c2ccccc2)c2ccccc2)[C@@H]2COCCN12	not satisfied
O=C1c2c(O)c(=O)ccn2N([C@H](c2ccccc2)c2ccc(F)c(F)c2)[C@@H]2COCCN12	not satisfied

We now examine a further compound.
Here's an entry: CC(C)[N+](C)(CCOC(=O)C1c2ccccc2Oc2ccccc21)C(C)C [PROPANTHELINE] . Is its remaining at 4 h, 1 µM below 50%?
satisfied
